tested on: green peach aphid (Myzus persicae); assay: Myzus persicae spray test (Chinese cabbage leaf discs); format: in vivo; conditions: Myzus persicae, foliar; application rate 500 g/ha, after 5-6 days, Chinese cabbage leaf discs; 100% = all aphids killed; read-out: efficacy in %
Recorded pest or weed control at 500 g/ha values for a group of compounds are listed next.
Reply with a number, then the unit it belongs to.

In the examples that follow, each entry is paired with its recorded pest or weed control at 500 g/ha.
CCNC(=O)c1ncc(C(=O)N(C)c2cccnc2)n1C 100%
COC(=O)N(C)/N=C/c1ncc(C(=O)N(C)c2cccnc2)n1C 100%
CC(C)C(=O)c1ncc(C(=O)N(C)c2cccnc2)n1C 100%

Please give the measured pest or weed control at 500 g/ha for this compound: COC(=O)c1ncc(C(=O)N(C)c2cccnc2)n1C
90%

src = patent US20190045783A1
